// provenance: ChEMBL document CHEMBL2150988

# pIC50 values compiled below
- target-system: Phosphatidylinositol 4,5-bisphosphate 3-kinase catalytic subunit gamma isoform (Homo sapiens, UniProt P48736)
- Sequence (P48736 whole entry, canonical isoform): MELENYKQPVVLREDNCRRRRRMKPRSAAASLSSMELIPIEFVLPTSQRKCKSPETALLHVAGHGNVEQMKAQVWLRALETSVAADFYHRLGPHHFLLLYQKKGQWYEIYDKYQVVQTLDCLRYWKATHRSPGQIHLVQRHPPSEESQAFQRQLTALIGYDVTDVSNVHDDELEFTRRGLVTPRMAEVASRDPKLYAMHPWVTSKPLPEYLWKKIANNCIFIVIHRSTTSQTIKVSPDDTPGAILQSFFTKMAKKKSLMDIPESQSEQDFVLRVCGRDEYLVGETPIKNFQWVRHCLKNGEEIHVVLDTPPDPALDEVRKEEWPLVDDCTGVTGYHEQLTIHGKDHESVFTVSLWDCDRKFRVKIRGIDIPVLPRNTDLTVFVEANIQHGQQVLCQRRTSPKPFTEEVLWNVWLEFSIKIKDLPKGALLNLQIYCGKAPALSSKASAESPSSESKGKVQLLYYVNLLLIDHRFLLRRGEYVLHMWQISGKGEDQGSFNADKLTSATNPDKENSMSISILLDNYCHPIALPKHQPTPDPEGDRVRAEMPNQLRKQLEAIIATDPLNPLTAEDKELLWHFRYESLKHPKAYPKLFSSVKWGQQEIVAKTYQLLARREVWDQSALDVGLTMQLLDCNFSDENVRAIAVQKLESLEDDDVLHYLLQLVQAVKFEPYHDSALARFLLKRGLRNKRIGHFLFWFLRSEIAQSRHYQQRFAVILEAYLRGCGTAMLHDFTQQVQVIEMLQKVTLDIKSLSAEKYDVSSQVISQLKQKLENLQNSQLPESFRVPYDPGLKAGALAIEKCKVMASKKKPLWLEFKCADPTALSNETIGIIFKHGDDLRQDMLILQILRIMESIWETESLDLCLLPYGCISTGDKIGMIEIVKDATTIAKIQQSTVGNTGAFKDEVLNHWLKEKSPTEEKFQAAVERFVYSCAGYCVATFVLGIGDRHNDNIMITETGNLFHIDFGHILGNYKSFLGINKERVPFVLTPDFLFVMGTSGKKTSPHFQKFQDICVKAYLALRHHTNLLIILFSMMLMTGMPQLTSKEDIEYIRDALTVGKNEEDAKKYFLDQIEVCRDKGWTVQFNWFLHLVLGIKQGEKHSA
- assay-procedure: Inhibition of PI3Kgamma
pIC50: −log10 of the molar value.
test-readout: pIC50

structure-notation: COC(=O)c1cc(NC(=O)Cc2nc(N3CCOCC3)cc(=O)[nH]2)ccc1F
test-readout: pIC50
measurement: < 5.00
//
structure-notation: COc1cc(NC(=O)Cc2nc(N3CCOCC3)cc(=O)[nH]2)ccc1F
test-readout: pIC50
measurement: < 5.00
//
structure-notation: O=C(Cc1nc(N2CCOCC2)cc(=O)[nH]1)Nc1cccc(F)c1
test-readout: pIC50
measurement: < 5.00
//
structure-notation: O=C(Cc1nc(N2CCOCC2)cc(=O)[nH]1)Nc1cccc(Cl)c1
test-readout: pIC50
measurement: < 5.00
//
structure-notation: Cc1ccccc1NC(=O)Cc1nc(N2CCOCC2)cc(=O)[nH]1
test-readout: pIC50
measurement: < 5.00
//
structure-notation: Cn1c(CC(=O)Nc2ccccc2)nc(N2CCOCC2)cc1=O
test-readout: pIC50
measurement: < 5.00
//
structure-notation: COc1cccc(NC(=O)Cc2nc(N3CCOCC3)cc(=O)[nH]2)c1
test-readout: pIC50
measurement: < 5.00
//
structure-notation: Cn1c(CC(=O)Nc2ccc(F)cc2)nc(N2CCOCC2)cc1=O
test-readout: pIC50
measurement: < 5.00
//
structure-notation: O=C(Cc1nc(N2CCOCC2)cc(=O)[nH]1)Nc1ccc(F)c(Cl)c1
test-readout: pIC50
measurement: 5.17
//
structure-notation: O=C(Cc1nc(N2CCOCC2)cc(=O)[nH]1)Nc1ccc(F)cc1
test-readout: pIC50
measurement: < 5.00
//
structure-notation: O=C(Cc1nc(N2CCOCC2)cc(=O)[nH]1)Nc1ccccc1F
test-readout: pIC50
measurement: < 5.00
//
structure-notation: Cn1c(CC(=O)Nc2ccc(F)c(F)c2)nc(N2CCOCC2)cc1=O
test-readout: pIC50
measurement: < 5.00
//
structure-notation: Cc1cc(NC(=O)Cc2nc(N3CCOCC3)cc(=O)[nH]2)ccc1F
test-readout: pIC50
measurement: 5.10
//
structure-notation: COc1cc(NC(=O)Cc2nc(N3CCOCC3)cc(=O)n2C)ccc1F
test-readout: pIC50
measurement: < 5.00
//
structure-notation: O=C(Cc1nc(N2CCOCC2)cc(=O)[nH]1)Nc1cccc(Br)c1
test-readout: pIC50
measurement: < 5.00
//
structure-notation: O=C(Cc1nc(N2CCOCC2)cc(=O)[nH]1)Nc1ccccc1
test-readout: pIC50
measurement: < 5.00
//
structure-notation: O=C(Cc1nc(N2CCOCC2)cc(=O)[nH]1)Nc1ccc(F)c(Br)c1
test-readout: pIC50
measurement: 5.18

====

- assay-procedure: Drug metabolism in mouse liver microsomes after 20 mins
- Assay type: ADME, Microsome
- measurement-parameters: read-out: Drug metabolism
Listed next: entries and their corresponding metabolised at 20 min.

structure-notation: O=C(Cc1nc(N2CCOCC2)cc(=O)[nH]1)Nc1cccc(Br)c1
metabolised at 20 min, %: 38
//
structure-notation: COc1cccc(NC(=O)Cc2nc(N3CCOCC3)cc(=O)[nH]2)c1
metabolised at 20 min, %: 47
//
structure-notation: O=C(Cc1nc(N2CCOCC2)cc(=O)[nH]1)Nc1cccc(Cl)c1
metabolised at 20 min, %: 22
//
structure-notation: O=C(Cc1nc(N2CCOCC2)cc(=O)[nH]1)Nc1ccc(F)c(F)c1
metabolised at 20 min, %: 11
//
structure-notation: Cc1cccc(NC(=O)Cc2nc(N3CCOCC3)cc(=O)[nH]2)c1
metabolised at 20 min, %: 54
//
structure-notation: COc1cc(NC(=O)Cc2nc(N3CCOCC3)cc(=O)[nH]2)ccc1F
metabolised at 20 min, %: 28
//
structure-notation: O=C(Cc1nc(N2CCOCC2)cc(=O)[nH]1)Nc1ccccc1
metabolised at 20 min, %: 4
//
structure-notation: O=C(Cc1nc(N2CCOCC2)cc(=O)[nH]1)Nc1cccc(F)c1
metabolised at 20 min, %: 21
//
structure-notation: O=C(Cc1nc(N2CCOCC2)cc(=O)[nH]1)Nc1ccc(F)c(Br)c1
metabolised at 20 min, %: 18
//
structure-notation: Cc1cc(NC(=O)Cc2nc(N3CCOCC3)cc(=O)[nH]2)ccc1F
metabolised at 20 min, %: 60
//
structure-notation: O=C(Cc1nc(N2CCOCC2)cc(=O)[nH]1)Nc1ccc(F)c(Cl)c1
metabolised at 20 min, %: 14
//
structure-notation: O=C(Cc1nc(N2CCOCC2)cc(=O)[nH]1)Nc1ccc(F)cc1
metabolised at 20 min, %: 27
//
structure-notation: Cn1c(CC(=O)Nc2ccc(F)c(Cl)c2)nc(N2CCOCC2)cc1=O
metabolised at 20 min, %: 12

====

- assay-procedure: Drug uptake in PTEN deficient human PC3 cells xenografted SCID mouse tumor at 30 mg/kg, po administered as solution after 1 hr
- Format: ADME, organism-based, Neoplasm, PC-3
- Set-up: dose 30 mg/kg, route oral
- measurement-parameters: tumor (PC3 xenograft), read-out: Drug uptake

structure-notation: Cn1c(CC(=O)Nc2ccc(F)c(Cl)c2)nc(N2CCOCC2)cc1=O
concentration at 1 h: 11 µM

====

- assay-procedure: Plasma concentration in SCID mouse xenografted with PTEN deficient human PC3 cells at 30 mg/kg, po administered as solution after 6 hrs
- Format: ADME, organism-based, PC-3
- Set-up: dose 30 mg/kg, route oral

structure-notation: Cn1c(CC(=O)Nc2ccc(F)c(Cl)c2)nc(N2CCOCC2)cc1=O
concentration at 6 h [nM]: 400

====

- target-system: Phosphatidylinositol 4,5-bisphosphate 3-kinase catalytic subunit beta isoform (Homo sapiens)
- Sequence (P42338 whole entry, canonical isoform): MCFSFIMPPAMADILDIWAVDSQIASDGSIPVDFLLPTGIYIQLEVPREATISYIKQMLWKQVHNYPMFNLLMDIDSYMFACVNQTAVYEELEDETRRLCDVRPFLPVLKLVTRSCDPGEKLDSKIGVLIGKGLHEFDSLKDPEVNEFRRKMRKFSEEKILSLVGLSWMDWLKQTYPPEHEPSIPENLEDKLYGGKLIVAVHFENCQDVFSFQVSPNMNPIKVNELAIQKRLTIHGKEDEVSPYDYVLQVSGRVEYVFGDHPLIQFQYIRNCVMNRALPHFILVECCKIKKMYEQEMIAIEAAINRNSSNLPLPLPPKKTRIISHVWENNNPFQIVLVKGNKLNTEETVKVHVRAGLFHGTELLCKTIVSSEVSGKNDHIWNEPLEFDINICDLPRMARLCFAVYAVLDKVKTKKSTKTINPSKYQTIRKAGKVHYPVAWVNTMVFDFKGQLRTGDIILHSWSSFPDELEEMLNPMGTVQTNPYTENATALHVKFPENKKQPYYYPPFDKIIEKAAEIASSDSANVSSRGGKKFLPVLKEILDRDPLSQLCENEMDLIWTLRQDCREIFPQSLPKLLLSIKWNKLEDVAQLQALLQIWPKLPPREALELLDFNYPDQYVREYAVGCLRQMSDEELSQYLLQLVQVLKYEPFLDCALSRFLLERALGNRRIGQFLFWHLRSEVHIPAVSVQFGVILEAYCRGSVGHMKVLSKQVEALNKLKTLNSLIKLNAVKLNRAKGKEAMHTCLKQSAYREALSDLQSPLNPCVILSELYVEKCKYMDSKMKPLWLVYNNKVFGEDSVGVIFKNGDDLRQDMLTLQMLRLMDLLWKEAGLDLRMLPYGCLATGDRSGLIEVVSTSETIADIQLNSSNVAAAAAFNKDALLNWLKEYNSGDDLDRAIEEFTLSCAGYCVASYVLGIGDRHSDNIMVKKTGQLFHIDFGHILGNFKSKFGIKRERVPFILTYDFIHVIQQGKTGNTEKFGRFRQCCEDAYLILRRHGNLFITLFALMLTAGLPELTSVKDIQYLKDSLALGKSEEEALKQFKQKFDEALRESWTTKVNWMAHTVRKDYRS
- assay-procedure: Inhibition of PI3Kbeta
Quick list: log10 IC50 per entry.
test-readout: log10 IC50 (log10 of the value in nM)

structure-notation: O=C(Cc1nc(N2CCOCC2)cc(=O)[nH]1)Nc1ccc(Cl)cc1
test-readout: log10 IC50
measurement: 2.60

structure-notation: O=C(Cc1nc(N2CCOCC2)cc(=O)[nH]1)Nc1ccccc1F
test-readout: log10 IC50
measurement: 2.15

structure-notation: COc1cc(NC(=O)Cc2nc(N3CCOCC3)cc(=O)n2C)ccc1F
test-readout: log10 IC50
measurement: 2.02

structure-notation: O=C(Cc1nc(N2CCOCC2)cc(=O)[nH]1)Nc1cccc(F)c1
test-readout: log10 IC50
measurement: 1.91

structure-notation: Cc1ccccc1NC(=O)Cc1nc(N2CCOCC2)cc(=O)[nH]1
test-readout: log10 IC50
measurement: 2.37

structure-notation: Cn1c(CC(=O)Nc2ccc(F)cc2)nc(N2CCOCC2)cc1=O
test-readout: log10 IC50
measurement: 2.39

structure-notation: Cn1c(CC(=O)Nc2ccccc2)nc(N2CCOCC2)cc1=O
test-readout: log10 IC50
measurement: 2.67

structure-notation: O=C(Cc1nc(N2CCOCC2)cc(=O)[nH]1)Nc1ccc(F)c(F)c1
test-readout: log10 IC50
measurement: 1.72

structure-notation: O=C(Cc1nc(N2CCOCC2)cc(=O)[nH]1)Nc1ccc(F)cc1
test-readout: log10 IC50
measurement: 1.11

structure-notation: Cc1cc(NC(=O)Cc2nc(N3CCOCC3)cc(=O)[nH]2)ccc1F
test-readout: log10 IC50
measurement: 0.78

structure-notation: O=C(Cc1nc(N2CCOCC2)cc(=O)[nH]1)Nc1ccc(F)c(Cl)c1
test-readout: log10 IC50
measurement: 0.30

====

- target-system: Phosphatidylinositol 4,5-bisphosphate 3-kinase catalytic subunit alpha isoform (Homo sapiens, UniProt P42336)
- Sequence (P42336 whole entry, canonical isoform): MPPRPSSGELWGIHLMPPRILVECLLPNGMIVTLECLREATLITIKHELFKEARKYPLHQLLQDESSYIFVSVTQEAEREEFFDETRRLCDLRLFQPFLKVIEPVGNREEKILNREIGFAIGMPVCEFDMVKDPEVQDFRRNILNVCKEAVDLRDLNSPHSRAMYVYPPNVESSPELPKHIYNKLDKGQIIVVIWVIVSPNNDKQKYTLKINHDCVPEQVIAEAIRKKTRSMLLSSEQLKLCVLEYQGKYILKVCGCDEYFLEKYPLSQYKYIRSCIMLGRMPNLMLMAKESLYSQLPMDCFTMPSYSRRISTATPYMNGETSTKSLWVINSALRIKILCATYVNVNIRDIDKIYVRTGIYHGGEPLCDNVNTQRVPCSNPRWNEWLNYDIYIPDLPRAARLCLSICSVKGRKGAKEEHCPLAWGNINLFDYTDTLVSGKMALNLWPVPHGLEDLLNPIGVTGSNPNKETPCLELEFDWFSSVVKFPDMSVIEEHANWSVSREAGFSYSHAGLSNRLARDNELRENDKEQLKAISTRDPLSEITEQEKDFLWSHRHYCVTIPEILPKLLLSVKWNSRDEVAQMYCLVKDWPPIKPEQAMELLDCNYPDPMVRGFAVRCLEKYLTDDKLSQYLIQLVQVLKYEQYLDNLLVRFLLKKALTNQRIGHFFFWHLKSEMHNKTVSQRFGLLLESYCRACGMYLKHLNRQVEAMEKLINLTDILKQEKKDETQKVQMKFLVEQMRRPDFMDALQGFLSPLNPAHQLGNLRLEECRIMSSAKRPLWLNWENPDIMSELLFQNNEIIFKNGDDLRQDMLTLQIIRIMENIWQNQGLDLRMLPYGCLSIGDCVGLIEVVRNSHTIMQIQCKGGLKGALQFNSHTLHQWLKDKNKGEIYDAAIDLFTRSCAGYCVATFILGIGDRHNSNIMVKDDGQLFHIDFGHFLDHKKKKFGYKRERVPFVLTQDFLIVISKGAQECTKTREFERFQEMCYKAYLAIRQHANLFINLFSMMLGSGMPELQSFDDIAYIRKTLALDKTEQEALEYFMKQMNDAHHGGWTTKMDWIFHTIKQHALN
- assay-procedure: Inhibition of PI3Kalpha

structure-notation: Cn1c(CC(=O)Nc2ccc(F)c(Br)c2)nc(N2CCOCC2)cc1=O
value-modifier: =
IC50 / µM: 7.61
//
structure-notation: Cc1ccccc1NC(=O)Cc1nc(N2CCOCC2)cc(=O)[nH]1
value-modifier: >
IC50 / µM: 10
//
structure-notation: O=C(Cc1nc(N2CCOCC2)cc(=O)[nH]1)Nc1cccc(Cl)c1
value-modifier: =
IC50 / µM: 2.55
//
structure-notation: Cn1c(CC(=O)Nc2ccccc2)nc(N2CCOCC2)cc1=O
value-modifier: >
IC50 / µM: 10
//
structure-notation: COc1cccc(NC(=O)Cc2nc(N3CCOCC3)cc(=O)[nH]2)c1
value-modifier: =
IC50 / µM: 2.37
//
structure-notation: Cn1c(CC(=O)Nc2ccc(F)cc2)nc(N2CCOCC2)cc1=O
value-modifier: >
IC50 / µM: 10
//
structure-notation: O=C(Cc1nc(N2CCOCC2)cc(=O)[nH]1)Nc1ccc(F)c(Br)c1
value-modifier: =
IC50 / µM: 4.14
//
structure-notation: O=C(Cc1nc(N2CCOCC2)cc(=O)[nH]1)Nc1ccc(F)cc1
value-modifier: =
IC50 / µM: 2.87
//
structure-notation: COc1cc(NC(=O)Cc2nc(N3CCOCC3)cc(=O)[nH]2)ccc1F
value-modifier: =
IC50 / µM: 3.46
//
structure-notation: O=C(Cc1nc(N2CCOCC2)cc(=O)[nH]1)Nc1ccccc1F
value-modifier: >
IC50 / µM: 10
//
structure-notation: O=C(Cc1nc(N2CCOCC2)cc(=O)[nH]1)Nc1ccc(F)c(F)c1
value-modifier: =
IC50 / µM: 3.84
